- system name: ZC3H18 (UniProt Q86VM9)
- Sequence (Q86VM9 whole entry, looked up): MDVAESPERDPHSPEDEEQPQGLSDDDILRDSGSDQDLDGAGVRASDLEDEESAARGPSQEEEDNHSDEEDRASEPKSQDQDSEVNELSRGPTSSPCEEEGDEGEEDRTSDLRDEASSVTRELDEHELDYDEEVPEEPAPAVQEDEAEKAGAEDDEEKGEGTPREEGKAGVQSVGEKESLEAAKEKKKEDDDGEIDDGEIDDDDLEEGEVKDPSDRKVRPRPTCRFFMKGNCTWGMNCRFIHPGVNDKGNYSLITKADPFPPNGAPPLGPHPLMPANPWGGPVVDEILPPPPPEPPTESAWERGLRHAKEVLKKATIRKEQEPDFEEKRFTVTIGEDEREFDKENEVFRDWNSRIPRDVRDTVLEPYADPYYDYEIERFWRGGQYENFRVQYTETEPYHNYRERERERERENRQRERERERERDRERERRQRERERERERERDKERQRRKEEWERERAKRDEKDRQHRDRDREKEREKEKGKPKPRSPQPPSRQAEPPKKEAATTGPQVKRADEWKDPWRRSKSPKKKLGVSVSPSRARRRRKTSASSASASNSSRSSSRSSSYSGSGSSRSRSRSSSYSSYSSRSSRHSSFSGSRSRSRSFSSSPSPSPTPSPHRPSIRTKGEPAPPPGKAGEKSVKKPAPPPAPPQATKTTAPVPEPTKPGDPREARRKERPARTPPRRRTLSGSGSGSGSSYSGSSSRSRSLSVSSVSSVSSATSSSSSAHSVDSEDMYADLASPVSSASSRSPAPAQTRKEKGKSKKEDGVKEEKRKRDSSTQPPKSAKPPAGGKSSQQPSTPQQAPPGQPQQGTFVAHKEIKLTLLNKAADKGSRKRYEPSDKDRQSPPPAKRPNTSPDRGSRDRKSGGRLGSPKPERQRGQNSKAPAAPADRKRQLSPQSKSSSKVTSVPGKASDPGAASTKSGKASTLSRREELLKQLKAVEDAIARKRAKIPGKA
- method notes: log2 fold change, soluble protein after heating vs DMSO (PISA); higher = thermal stabilisation; K562 cells, 10 uM, 30 min; active = over 0.2 and 3.5 SD of the protein, either way, in both replicates (recomputed)
Targets with a hit are over-represented here; the source holds about 7,900 in all. About 0.6% of all pairs of compound and target were hits.
Okay, here is how we bin by log2 fold change: b0 = under -0.01, b1 = from -0.01 up to 0.03, b2 = 0.03 and over

{"compound": "CC1=C(C(=O)Nc2cc3cn[nH]c3cc2F)C(c2ccc(C(F)(F)F)cc2)CC(=O)N1 (configuration not stated)", "class assignment": "b1"}
{"compound": "Cc1nc(Nc2ncc(C(=O)Nc3c(C)cccc3Cl)s2)cc(N2CCN(CCO)CC2)n1", "class assignment": "b2"}
{"compound": "NCC(=O)Nc1ccc(-n2nc(C(F)(F)F)cc2-c2ccc3c(ccc4ccccc43)c2)cc1", "class assignment": "b0"}
{"compound": "c1cc(OCCN2CCCCC2)cc(-c2n[nH]c3ccc(-c4nnc[nH]4)cc23)c1", "class assignment": "b0"}
{"compound": "CN1CCc2c(c3ccccc3n2Cc2ccc(C(=O)NO)cc2)C1", "class assignment": "b2"}
{"compound": "NC(=O)c1ccc2nc(-c3ccc(Oc4ccc(Cl)cc4)cc3)[nH]c2c1", "class assignment": "b2"}
{"compound": "Cc1ncc(-c2ccnc(Nc3ccc(S(C)(=O)=O)cc3)n2)n1C(C)C", "class assignment": "b0"}
{"compound": "COc1cccc2cc(-c3nc([C@H]4CC[C@H](C(=O)O)CC4)n4ncnc(N)c34)[nH]c12", "class assignment": "b1"}
{"compound": "CNC(=O)c1ccc(Nc2ncc(C(F)(F)F)c(NCc3nccnc3N(C)S(C)(=O)=O)n2)cc1", "class assignment": "b0"}
{"compound": "C/C(=N\\NC(=O)c1cccc(S(=O)(=O)N2CCOCC2)c1)c1cc(Cl)ccc1O", "class assignment": "b1"}
{"compound": "NC1(c2ccc(-c3nc4ccn5c(=O)[nH]nc5c4cc3-c3ccccc3)cc2)CCC1", "class assignment": "b2"}
